- assay-system: RBD-FH, monomeric RBD (332-534) with a FLAG peptide and an 8xHis-tag at the C-terminus (SARS-CoV-2, UniProt P0DTC2 332-534)
For each entry below, report its pKd value.
Give bare numbers, as −log10 of the molar value.

hcAb 2.1 (Fc fusion, also called 2.1Fc) heavy: QVQLVESGGGSVQAGGSLRLSCAAFGATISSAHMGWFRQAPGKEREGVAFRYTDGSSTYYTTSVRGRFTISQDNAKNTVYLQMNSLKPEDTAMYYCASNPSWGRLVGGQYNNWGQGTQITVSS | 9.44
hcAb 2.20 (Fc fusion, also called 2.20Fc; 2.20 hcAb) heavy: QVQLVESGGGSVQAGGSLRLSCAASGYTYNNYYMGWFRQAPGKEREGVAAINSDGLDTYVADSVKGRFTISRDNAKDTVHLQMNSLKPEDTAIYSCATGRTVYYSGYDFRLSVDDYWGQGTQVTVSS | 9.68
hcAb 1.16 (Fc fusion, also called 1.16Fc) heavy: QVQLVESGGGSVQAGGSLRLSCAASGNTSKRKCVGWFRRAPGKEREGVTLIYTVGGSTVYADSVKGRFTISQDNAKDTVYLQMNSLKPEDSAMYYCAAESWGRQCNLETHRFTFWGQGTQVTVSS | 9.60

-- ask What value of measured pKd is listed for hcAb 1.26 (Fc fusion) heavy: QVQLVESGGGLVQAGGSLRLSCAATGYTWSSVCMGWFRQAPGKEREGVAGIPSGRNRPYYADSVKGRFTISQDNAKNAVFLLMNSLKPEDTAIYYCAPCSAPHDPEYNYWGQGTQVTVSS ?
-- reply 10.10
